Parameter EC50: see the listing below.
- target-or-test-system: TRPML1 (Homo sapiens, UniProt Q9GZU1)
- Sequence (Q9GZU1 whole entry L15A/L16A/L577A/L578A, form open): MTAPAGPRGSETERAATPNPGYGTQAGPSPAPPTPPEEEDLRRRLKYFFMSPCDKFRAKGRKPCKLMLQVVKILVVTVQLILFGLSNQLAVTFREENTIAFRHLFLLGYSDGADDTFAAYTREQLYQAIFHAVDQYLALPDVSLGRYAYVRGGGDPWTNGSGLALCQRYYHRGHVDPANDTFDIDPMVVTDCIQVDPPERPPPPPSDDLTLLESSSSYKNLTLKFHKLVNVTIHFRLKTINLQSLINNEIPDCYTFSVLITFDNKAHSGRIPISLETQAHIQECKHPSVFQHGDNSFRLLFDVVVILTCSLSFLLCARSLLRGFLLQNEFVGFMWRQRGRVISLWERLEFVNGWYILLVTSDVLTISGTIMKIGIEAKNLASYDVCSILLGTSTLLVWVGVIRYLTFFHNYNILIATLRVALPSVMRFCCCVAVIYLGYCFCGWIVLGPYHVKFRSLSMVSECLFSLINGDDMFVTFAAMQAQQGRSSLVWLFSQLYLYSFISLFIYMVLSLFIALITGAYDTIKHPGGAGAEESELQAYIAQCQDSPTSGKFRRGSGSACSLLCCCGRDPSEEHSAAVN
- test-description: Fluorescent TRPML1 assay (Fluo4-AM calcium fluorescence in doxycycline-induced HEK-293 Trex cells)
- Type: cell-based
- stated-conditions: fluorescent calcium assay
measured-metric: EC50

>>> result("COc1cc(-n2cc(C3CC3)c3c(N4CCN(C(=O)OC(C)(C)C)C[C@@H]4C)ncnc32)ccc1F")
"0.5 to 2 µM"
>>> result("Cc1ccc(Cl)cc1-n1cc(N2CCCC2)c2c(N3CCN(C(=O)OC(C)(C)C)C[C@@H]3C)ncnc21")
"0.5 to 2 µM"
>>> result("C[C@H]1CN(C(=O)OC(C)(C)C)CCN1c1ncnc2c1c(C1CC1)cn2-c1cccc(F)c1F")
"0.1 to 0.5 µM"
>>> result("COC(=O)c1nccnc1-c1cn(-c2cccc(Cl)c2)c2ncnc(N3CCN(C(=O)OC(C)(C)C)C[C@@H]3C)c12")
"> 2 µM"
>>> result("C[C@H]1CN(C(=O)OC(C)(C)C)CCN1c1ncnc2c1c(C1CC1)cn2C1CC(C#N)C1 (stereo partly shown)")
"0.5 to 2 µM"
>>> result("C[C@@H]1CN(c2ncnc3c2c(C2CC2)cn3-c2cc(F)cc(F)c2)CCN1C(=O)OC(C)(C)C")
"< 0.1 µM"
>>> result("C[C@@H]1CN(c2ncnc3c2c(-c2cnccn2)cn3-c2cccc(Cl)c2)[C@@H](C)CN1C(=O)OC(C)(C)C")
"< 0.1 µM"

* * *

- target-or-test-system: TRPML1 (Homo sapiens)
- test-description: Fluorescent TRPML1 assay (Fluo4-AM calcium fluorescence in doxycycline-induced HEK-293 Trex cells)
- Format: cell-based
- stated-conditions: fluorescent calcium assay
- Method: HEK-293 Trex cells were stably transfected with a construct consisting of the human coding sequence for TRPML1 cloned into the […] plasmid pCDNA5 T/O. Mutations were introduced into the TRPML1 sequence to facilitate expression on the cell surface (Silvia Vergarajauregui, Rosa Puertollano, Traffic. 2006 March; 7(3): 337-353). […] The Trypsin-EDTA is diluted with growth media, and cells are counted. […] EC50 values were calculated using a non-linear regression of Prism. […]
measured-metric: EC50

>>> result("Cc1nccnc1-c1cn(-c2cc(F)cc(F)c2)c2ncnc(N3CCN(C(=O)OC(C)(C)CF)[C@H](C)C3)c12 [Compound 250]")
"0.5 to 2 µM"
>>> result("C[C@H]1CN(C(=O)OC(C)(C)C)CCN1c1ncnc2c1c(CN1CCCC1)cn2-c1cccc(Cl)c1 [Compound 337]")
"0.5 to 2 µM"
>>> result("CCOC(=O)N1CCN(c2ncnc3c2c(-c2ccccn2)cn3-c2ccc(F)c(Cl)c2)CC1 [Compound 152]")
"0.5 to 2 µM"

* * *

- target-or-test-system: TRPML3 (Homo sapiens, UniProt Q8TDD5)
- Construct: expressed in transfected cells
- Sequence (Q8TDD5 whole entry): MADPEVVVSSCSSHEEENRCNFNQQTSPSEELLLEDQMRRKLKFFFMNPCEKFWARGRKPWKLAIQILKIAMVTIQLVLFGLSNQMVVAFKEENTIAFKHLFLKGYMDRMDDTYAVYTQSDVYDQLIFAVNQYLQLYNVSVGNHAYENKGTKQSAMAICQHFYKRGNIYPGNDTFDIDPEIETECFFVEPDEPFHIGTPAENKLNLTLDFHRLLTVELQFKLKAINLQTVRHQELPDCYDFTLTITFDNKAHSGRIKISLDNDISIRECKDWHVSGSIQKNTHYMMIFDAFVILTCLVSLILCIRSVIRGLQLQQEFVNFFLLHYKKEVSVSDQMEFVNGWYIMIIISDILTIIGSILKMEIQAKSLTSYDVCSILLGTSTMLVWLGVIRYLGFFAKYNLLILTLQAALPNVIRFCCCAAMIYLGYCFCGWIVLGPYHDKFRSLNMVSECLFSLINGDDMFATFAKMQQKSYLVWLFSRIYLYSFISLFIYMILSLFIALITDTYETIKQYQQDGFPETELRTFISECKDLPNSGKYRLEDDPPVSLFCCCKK
- test-description: Fluorescent TRPML3 assay (performed as for TRPML1, substituting the TRPML3 subtype)
- Assay type: cell-based
- stated-conditions: fluorescent calcium assay
pEC50: −log10 of the molar value.
measured-metric: pEC50

>>> result("C[C@@H]1COCCN1c1cn(-c2cccc(C#N)c2)c2ncnc(N3CCN(C(=O)OC(C)(C)C)C[C@@H]3C)c12")
"6.30 to 7.00"
>>> result("C[C@H]1CN(C(=O)OC(C)(C)C)CCN1c1ncnc2c1c(-c1ccccc1F)cn2-c1nccc(C#N)n1")
"> 7.00"
>>> result("C[C@@H]1CN(C(=O)OC(C)(C)C)CCN1c1ncnc2c1c(-c1ccccc1F)cn2-c1cc(C#N)ccn1")
"> 7.00"
>>> result("C[C@H]1CN(C(=O)OC(C)(C)C)CCN1c1ncnc2c1c(CN1CCCC1)cn2-c1cccc(Cl)c1")
"6.30 to 7.00"
>>> result("C[C@H]1CN(C(=O)OC(C)(C)C)CCN1c1ncnc2c1c(C1COC1)cn2-c1cccc(F)c1")
"< 5.70"
>>> result("C[C@@H]1CN(c2ncnc3c2c(N2CCCC2)cn3-c2cc(F)c(F)c(F)c2)CCN1C(=O)OC(C)(C)C")
"> 7.00"
>>> result("C[C@@H]1CN(C(=O)OC(C)(C)C)CCN1c1ncnc2c1c(N1CCCC1)cn2-c1cc(F)cc(F)c1")
"6.30 to 7.00"

* * *

Parameter EC50: see the listing below.
- target-or-test-system: TRPML1 (Homo sapiens)
- test-description: Fluorescent TRPML1 assay (Fluo4-AM calcium fluorescence in doxycycline-induced HEK-293 Trex cells)
- Type: cell-based
- stated-conditions: fluorescent calcium assay
measured-metric: EC50

>>> result("CCOC(=O)N1C[C@H](C)N(c2ncnc3c2c(-c2cccnc2)cn3-c2cccc(Cl)c2)C[C@H]1C")
"100 to 500 nM"
>>> result("CC(C)(C)OC(=O)N1CCN(c2ncnc3c2c(-c2ccccc2F)cn3-c2ncc(C#N)s2)CC1")
"< 100 nM"
>>> result("C[C@@H]1CN(C(=O)OC(C)(C)C)CCN1c1ncnc2c1c(C1=CCOCC1)cn2-c1cccc(F)c1")
"500 to 2000 nM"
>>> result("C[C@@H]1CN(C(=O)OC(C)(C)C)CCN1c1ncnc2c1c(N1CCOCC1)cn2-c1cccc(Cl)c1")
"500 to 2000 nM"
>>> result("C[C@H]1CN(C(=O)OC(C)(C)C)CCN1c1ncnc2c1c(C1CC1(F)F)cn2-c1cccc(C#N)c1 (stereo partly drawn)")
"< 100 nM"
>>> result("C[C@H]1CN(C(=O)OC(C)(C)C)CCN1c1ncnc2c1c(N1CCCC1)cn2-c1cc(F)c(F)c(F)c1")
"< 100 nM"
>>> result("C[C@@H]1CN(C(=O)OC(C)(C)C)CCN1c1ncnc2c1c(C1CC1)cn2-c1cccc(C#N)c1")
"100 to 500 nM"
>>> result("CC(C)(OC(=O)N1CCN(c2ncnc3c2c(C2CC2)cn3-c2cc(C#N)ccn2)CC1)C(F)(F)F")
"100 to 500 nM"
>>> result("C[C@H]1CN(C(=O)OC(C)(C)C)CCN1c1ncnc2c1c(N1CCC1)cn2-c1cc(C#N)ccn1")
"< 100 nM"
>>> result("C[C@@H]1CN(C(=O)OC(C)(C)C(F)(F)F)CCN1c1ncnc2c1c(C1CC1)cn2-c1ccc(Cl)cc1")
"< 100 nM"
>>> result("Cc1c(F)cc(-n2cc(N3CCCC3)c3c(N4CCN(C(=O)OC(C)(C)C)C[C@@H]4C)ncnc32)cc1F")
"100 to 500 nM"
>>> result("C[C@H]1CN(C(=O)OC(C)(C)C)CCN1c1ncnc2c1c(N1CCCC1)cn2-c1ncc(C#N)s1")
"< 100 nM"
>>> result("C[C@@H]1CN(c2ncnc3c2c(-c2ccccc2F)cn3-c2cccnc2)[C@@H](C)CN1C(=O)OC(C)(C)C")
"< 100 nM"
>>> result("C[C@H]1CN(C(=O)OC(C)(C)C)CCN1c1ncnc2c1c(C1CC1)cn2-c1cc(F)ccn1")
"< 100 nM"
>>> result("CCOC(=O)N1C[C@H](C)N(c2ncnc3c2c(-c2ccccc2F)cn3-c2cncc(OC)c2)C[C@H]1C")
"500 to 2000 nM"

* * *

- target-or-test-system: TRPML3 (Homo sapiens, UniProt Q8TDD5)
- Construct: expressed in transfected cells
- test-description: Fluorescent TRPML3 assay (performed as for TRPML1, substituting the TRPML3 subtype)
- Type: cell-based
Parameter EC50: see the listing below.
measured-metric: EC50

>>> result("C[C@@H]1CN(c2nccc3c2c(C(F)F)cn3-c2cc(C#N)ccn2)[C@@H](C)CN1C(=O)OC(C)(C)C")
"100 to 500 nM"
>>> result("C[C@@H]1CN(c2ncnc3c2c(C(F)F)cn3-c2cccc(F)c2)[C@@H](C)CN1C(=O)OC(C)(C)C")
"< 100 nM"
>>> result("C[C@@H]1CN(c2ncnc3c2c(C(F)(F)F)cn3-c2ccccn2)[C@@H](C)CN1C(=O)OC(C)(C)C")
"100 to 500 nM"
>>> result("Cc1cn(-c2cncc(C#N)c2)c2ncnc(N3C[C@@H](C)N(C(=O)OC(C)(C)C)C[C@@H]3C)c12")
"100 to 500 nM"
>>> result("CC(C)(C)OC(=O)N1CCN(c2ncnc3c2c(C(F)F)cn3-c2cc(C#N)ccn2)CC1")
"< 100 nM"
>>> result("Cc1cn(-c2cc(F)ccn2)c2ncnc(N3CCN(C(=O)OC(C)(C)C)C[C@@H]3C)c12")
"< 100 nM"
>>> result("CCc1cn(-c2cc(C(F)(F)F)ccn2)c2ncnc(N3C[C@@H](C)N(C(=O)OC(C)(C)C)C[C@@H]3C)c12")
"< 100 nM"
>>> result("C[C@@H]1CN(c2ncnc3c2c(OC2CCC2)cn3-c2cc(C#N)ccn2)[C@@H](C)CN1C(=O)OC(C)(C)C")
"< 100 nM"
>>> result("C[C@@H]1CN(c2ncnc3c2c(C(F)F)cn3C2CCC(C#N)C2)[C@@H](C)CN1C(=O)OC(C)(C)C (some centres unmarked)")
"500 to 2000 nM"
>>> result("C[C@@H]1CN(c2ncnc3c2c(-c2ccccc2F)cn3-c2cncc(C#N)c2)[C@@H](C)CN1C(=O)OC(C)(C)C")
"< 100 nM"
>>> result("Cc1cn(-c2cc(F)cc(Cl)c2)c2ncnc(N3C[C@@H](C)N(C(=O)OC(C)(C)C)C[C@@H]3C)c12")
"< 100 nM"
>>> result("Cc1cn(-c2ccccn2)c2ncnc(N3CCN(C(=O)OC(C)(C)C)C[C@@H]3C)c12")
"< 100 nM"
>>> result("C[C@@H]1CN(c2ncnc3c2c(CC(F)(F)F)cn3-c2cc(C#N)ccn2)[C@@H](C)CN1C(=O)OC(C)(C)C")
"< 100 nM"
>>> result("C[C@@H]1CN(c2ncnc3c2c(C(F)(F)F)cn3-c2cc(Cl)ccn2)[C@@H](C)CN1C(=O)OC(C)(C)C")
"< 100 nM"
